Hello, the source for this data is paper PMC5983740, in case you need it.

Overview of reported PEP Residual Activity (%) across a group of substances:
- System Tested: prolyl endopeptidase (PEP) (Elizabethkingia meningoseptica)
- Construct: purchased Seikagaku Corporation (Tokyo, Japan)
- Sequence (P27028 21-705): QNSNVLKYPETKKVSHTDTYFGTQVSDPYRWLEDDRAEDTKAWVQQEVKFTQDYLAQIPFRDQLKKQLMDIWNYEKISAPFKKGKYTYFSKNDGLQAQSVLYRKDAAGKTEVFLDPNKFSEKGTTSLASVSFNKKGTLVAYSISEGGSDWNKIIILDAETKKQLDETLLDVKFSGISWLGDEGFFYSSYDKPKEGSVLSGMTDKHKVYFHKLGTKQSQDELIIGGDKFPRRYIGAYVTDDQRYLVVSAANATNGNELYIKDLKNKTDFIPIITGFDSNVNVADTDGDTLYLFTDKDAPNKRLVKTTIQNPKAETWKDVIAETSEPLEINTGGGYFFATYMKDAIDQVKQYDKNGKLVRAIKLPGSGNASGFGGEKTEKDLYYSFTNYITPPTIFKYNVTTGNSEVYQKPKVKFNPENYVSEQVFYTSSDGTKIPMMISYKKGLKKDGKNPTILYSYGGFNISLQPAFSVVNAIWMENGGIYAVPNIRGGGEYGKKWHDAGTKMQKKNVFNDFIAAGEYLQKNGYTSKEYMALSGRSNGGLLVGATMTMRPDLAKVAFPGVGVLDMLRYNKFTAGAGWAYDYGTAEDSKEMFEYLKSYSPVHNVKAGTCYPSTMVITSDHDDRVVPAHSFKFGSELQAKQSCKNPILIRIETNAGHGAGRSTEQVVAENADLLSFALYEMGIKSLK
- Assay: biochemical
- Type: biochemical
- Test Context: peptide 1 mg/mL; % of control without peptide (100%); pH 7, 30 °C, 30 min; mean ± SD of three replicates; SD
Entry rule: numbers only, all in %.

Examples with answers:
substance="NEGLTW [PKH8, LF-derived hexapeptide NEGLTW]" system_tested="prolyl endopeptidase (PEP) (Elizabethkingia meningoseptica)" unit_of_measurement=% quantitative_result=87.1
substance="GILRPY [PKH6, synthetic peptide identified in proteinase K lactoferrin hydrolysate, GILRPY]" system_tested="prolyl endopeptidase (PEP) (Elizabethkingia meningoseptica)" unit_of_measurement=% quantitative_result=97.2

From here, focus on the item given below.
Task item: # get_value(readout='PEP Residual Activity (%)', item= DRDQYELL [PKH7, synthetic peptide identified in proteinase K lactoferrin hydrolysate, DRDQYELL] )
Reply: 115.3
